- measurement.notes: duplex melting temperature (HRM, EvaGreen); higher = more stable duplex
- assay.context: duplex concentration 10 µM; backbone: PO-PO (both strands phosphodiester DNA)
The threshold is inclusive: duplex melting temperature of exactly 70 °C counts as YES; values below receive NO.

Before answering, review these 3 worked examples.
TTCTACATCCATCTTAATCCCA; YES
AGCACGGTGGTACAACA; YES
CGTGTGGATAATTAGCT; NO

Hello, I need to know if TTAACCTGCAATGGATC has measured duplex melting temperature not below 70 °C. Thanks!
NO

Query TGCCATGTTGAAAACC next
NO

Proceed to GTCATTGTGCTTTTGC
NO

Same again, this time with GCTGTGAAACAATGTAG
NO

// query: ACTCGCTCTACCTTAAT
NO

Now try GGACGGCGTT .
NO

Follow-up item: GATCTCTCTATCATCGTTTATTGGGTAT
YES

###

- measurement.notes: duplex melting temperature (HRM, EvaGreen); higher = more stable duplex
- assay.context: duplex concentration 2.5 µM; backbone: PO-PO (both strands phosphodiester DNA)
sequences and their reported duplex melting temperature

These recorded examples may help you get a feel for the data.
ACTGTATCGCCCTA; 64 °C
GTGAGCAGAAGGGGTT; 66.6 °C

Which duplex melting temperature value is on record for AACGAATGTCAGCAATT ?
64.9 °C

Same read-out for AGGAGTGAATGAAATGG ?
62.1 °C

Follow-up item: CGGTGCTTTTGGTAGC
66.2 °C

Next sequence: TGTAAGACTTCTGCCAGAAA
70.5 °C

# iterate: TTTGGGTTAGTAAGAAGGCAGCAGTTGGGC
82 °C

###

- measurement.notes: duplex formation free energy ΔG50 (Van't Hoff fit of HRM Tm); higher = less stable duplex
- assay.context: temperature for dG: 50 °C; NaCl: 500 mM (unadjusted); backbone: PS-PS (both strands fully phosphorothioate)
Entries annotated with measured duplex formation free energy ΔG50
Give a bare numeral; the unit kcal/mol is implied.

TTGAAAACCCATGTGC; -8.58
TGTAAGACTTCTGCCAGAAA; -10.1
CGGTGCTTTTGGTAGC; -9.5
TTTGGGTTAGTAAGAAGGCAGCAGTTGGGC; -15.9
GAACCGTTGATGATCTC; -9.1

Bench note: what duplex formation free energy ΔG50 did CGTGTGGATAATTAGCT show?
-8.76

Would you kindly repeat that for TTAACCTGCAATGGATC ?
-8.86

Next sequence up: GCCCGAGCATGACTGCG
-12.2

###

- measurement.notes: duplex melting temperature (HRM, EvaGreen); higher = more stable duplex
- assay.context: duplex concentration 15 µM; backbone: PS-PO (listed strand fully phosphorothioate, complement phosphodiester)
Listing: duplex melting temperature of selected sequences
Return type: number; implicit unit °C.

Would you mind telling me what duplex melting temperature value was observed for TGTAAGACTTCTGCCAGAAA ?
67.2

Record: CTGTAAGGCGATATGTT
62.6

Field entry: AGCTGAGCCTGCCGCC
75.3

###

- measurement.notes: duplex formation enthalpy ΔH (Van't Hoff fit of HRM Tm); higher = less exothermic duplex formation
- assay.context: temperature for dG: 50 °C; NaCl: 500 mM (unadjusted); backbone: PS-PS (both strands fully phosphorothioate)
result.type: duplex formation enthalpy ΔH (kcal/mol)
Report as a plain number; the unit kcal/mol is understood.

Worked cases, duplex formation enthalpy ΔH given:
CGATTTTGTCAAGCCT; -66.5
CACAGCGACATGTATGG; -80
GGTGGCGTTCTT; -41.1
ACTGTATCGCCCTA; -40.3
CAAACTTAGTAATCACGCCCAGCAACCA; -112

For the sequence shown here, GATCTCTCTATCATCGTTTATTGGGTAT , give the reported duplex formation enthalpy ΔH.
-109

Moving on to the next sequence: TTCGCGGTCTCCATTA
-60.9

What about TTGAAAACCCATGTGC ?
-69.7

Same again, this time with GCGGTTGGTGGCCAAC
-75.1

Now try GATGCCGCAGCGACCTG .
-77.6

Consider next the sequence CTTTTGTGCGGGTAGC in the same way.
-60

Repeat for the following sequence: CGGTGCTTTTGGTAGC
-69.1

Follow-up entry: GTGAGCAGAAGGGGTT
-66.3

###

- measurement.notes: duplex formation free energy ΔG50 (Van't Hoff fit of HRM Tm); higher = less stable duplex
- assay.context: temperature for dG: 50 °C; NaCl: 500 mM (unadjusted); backbone: PS-PO (listed strand fully phosphorothioate, complement phosphodiester)
result.type: duplex formation free energy ΔG50 (kcal/mol)
Return type: number; implicit unit kcal/mol.

For orientation, consider the following solved cases.
CGGTGCTTTTGGTAGC; -11
TATTCTGCCAATGGAAC; -10.6
CTTTTGTGCGGGTAGC; -11.1
GCGGTTGGTGGCCAAC; -12.9
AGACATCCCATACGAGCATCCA; -16.1

What measured duplex formation free energy ΔG50 goes with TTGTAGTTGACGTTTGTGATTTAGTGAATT ?
-16.9

// same read-out, input: CTAAACTGTTATAGCCGG
-11.2

Same question for TCTCGCGGTTCCATTA please.
-11

Try GCCCGAGCATGACTGCG next.
-13.6

Moving on to the next sequence: CGACATGTATGGCACAG
-11.9

Please do the same for GTGGTACAAATGCGACC as well.
-11.9

Input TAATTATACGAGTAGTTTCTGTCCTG
-13.9

Now give it for CTCGGAGGCCCCATTTA too.
-11.9

Then ATAACTTACTCTCGCCT ?
-10.7

And then AGAGCGCCCTGCTGCC , what is it?
-13.3

Same read-out for AGCACGGTGGTACAACA ?
-12.2

Now the same for GATGCCGCAGCGACCTG
-13.6

Request: GTGAGCAGAAGGGGTT
-11.8

###

- measurement.notes: duplex melting temperature (HRM, EvaGreen); higher = more stable duplex
- assay.context: duplex concentration 5 µM; backbone: PS-PO (listed strand fully phosphorothioate, complement phosphodiester)
Returns one of Criterion met or Criterion not met; Criterion met when duplex melting temperature is >= 70 °C.

CTAAACTGTTATAGCCGG; Criterion not met
CGTGTGGATAATTAGCT; Criterion not met
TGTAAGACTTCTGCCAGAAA; Criterion not met

# check: duplex melting temperature of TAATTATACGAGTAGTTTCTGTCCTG is greater than or equal to 70 °C
Criterion not met

Check AACGAATGTCAGCAATT too.
Criterion not met

Check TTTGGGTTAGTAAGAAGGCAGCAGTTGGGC too.
Criterion met

Now the same for TTAACCTGCAATGGATC
Criterion not met

Can you handle CTACCAGCGGCGCCGTT next?
Criterion met

###

// duplex formation free energy ΔG50 lookup, one value per entry
- measurement.notes: duplex formation free energy ΔG50 (Van't Hoff fit of HRM Tm); higher = less stable duplex
- assay.context: temperature for dG: 50 °C; NaCl: 500 mM (unadjusted); backbone: PO-PO (both strands phosphodiester DNA)
Please don't drop the unit; write it after the number.

GAGCAGAAGGGGTTGT; -12.4 kcal/mol
TCTACACCGCGA; -10.8 kcal/mol
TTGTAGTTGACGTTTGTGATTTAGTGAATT; -23.4 kcal/mol
CTGTAAGGCGATATGTT; -12.5 kcal/mol
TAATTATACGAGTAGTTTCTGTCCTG; -17.6 kcal/mol

Could you share which duplex formation free energy ΔG50 value was measured for TGCCATGTTGAAAACC ?
-12.4 kcal/mol

Thanks! And GTCATTGTGCTTTTGC ?
-12.3 kcal/mol

###

- measurement.notes: duplex melting temperature (HRM, EvaGreen); higher = more stable duplex
- assay.context: duplex concentration 15 µM; backbone: PS-PS (both strands fully phosphorothioate)
Below, each of the sequences is paired with its reported duplex melting temperature value.
Number first, unit second.

Past entries and their recorded results:
CAAGCCTCGATTTTGT; 55.8 °C
CGTGTGGATAATTAGCT; 52.8 °C

Next, consider the following sequence.
Dear colleague, I am looking for the recorded duplex melting temperature of the following sequence: CCACTAGCGGCGCCGTT
70.5 °C

###

- measurement.notes: duplex melting temperature (HRM, EvaGreen); higher = more stable duplex
- assay.context: duplex concentration 7.5 µM; backbone: PO-PO (both strands phosphodiester DNA)
A collection of sequences and their measured duplex melting temperature
Kindly answer with a numeric value in °C, unit omitted.

The following sequences have reported results that may help.
GGTGGCGTTCTT; 64.6
AATGAGGAGTGAAATGG; 66.1
CTCAGAGTAGAGCCGA; 69.5
GGTTGCGGTGGCCAAC; 76

Now, please, on to the next sequence.
Entry GATGCCGCAGCGACCTG : reported duplex melting temperature = ?
80.5

###

- measurement.notes: duplex melting temperature (HRM, EvaGreen); higher = more stable duplex
- assay.context: duplex concentration 7.5 µM; backbone: PO-PO (both strands phosphodiester DNA)
Think of 70 °C as a floor: if duplex melting temperature stands on it or above, it is rule met; beneath it, rule not met.

// below: answered sequences
ACTGTATCGCCCTA; rule not met
CTCGGAGGCCCCATTTA; rule met

// inclusive: duplex melting temperature at least 70 °C? input: CGTGTGGATAATTAGCT
rule not met

Next sequence: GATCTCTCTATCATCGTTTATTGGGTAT
rule met

Follow-up item: ACTCGCTCTACCTTAAT
rule not met

Entry source: the supplement of paper PMC9116672
